Biological target: fusion protein PRE
Sequence (chain, as listed by the source): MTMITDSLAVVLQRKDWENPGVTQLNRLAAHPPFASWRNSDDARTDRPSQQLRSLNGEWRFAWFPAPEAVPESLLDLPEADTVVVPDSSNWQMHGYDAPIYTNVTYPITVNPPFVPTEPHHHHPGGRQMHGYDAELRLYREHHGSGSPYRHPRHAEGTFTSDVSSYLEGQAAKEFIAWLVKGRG
PARAMETER: relative cleavage efficiency

- OmpT protease variant OmpT D97C (protein) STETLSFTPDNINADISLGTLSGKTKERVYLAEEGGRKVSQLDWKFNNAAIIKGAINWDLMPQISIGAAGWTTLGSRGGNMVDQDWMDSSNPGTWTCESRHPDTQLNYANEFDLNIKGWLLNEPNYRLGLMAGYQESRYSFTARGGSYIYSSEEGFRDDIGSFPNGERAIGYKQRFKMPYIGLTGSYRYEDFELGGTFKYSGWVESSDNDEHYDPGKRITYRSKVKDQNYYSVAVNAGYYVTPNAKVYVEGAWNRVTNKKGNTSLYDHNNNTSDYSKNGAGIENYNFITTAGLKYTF: less than 3%
- OmpT protease variant OmpT D97I (protein) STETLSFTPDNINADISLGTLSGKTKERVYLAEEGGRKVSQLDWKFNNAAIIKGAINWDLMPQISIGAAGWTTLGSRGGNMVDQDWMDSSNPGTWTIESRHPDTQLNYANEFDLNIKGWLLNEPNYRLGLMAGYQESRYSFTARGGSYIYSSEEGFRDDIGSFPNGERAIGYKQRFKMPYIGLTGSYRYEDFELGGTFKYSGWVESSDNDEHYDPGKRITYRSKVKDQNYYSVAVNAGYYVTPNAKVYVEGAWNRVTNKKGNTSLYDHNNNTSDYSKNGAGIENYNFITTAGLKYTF: less than 3.0%
- OmpT protease variant OmpT D97H (protein) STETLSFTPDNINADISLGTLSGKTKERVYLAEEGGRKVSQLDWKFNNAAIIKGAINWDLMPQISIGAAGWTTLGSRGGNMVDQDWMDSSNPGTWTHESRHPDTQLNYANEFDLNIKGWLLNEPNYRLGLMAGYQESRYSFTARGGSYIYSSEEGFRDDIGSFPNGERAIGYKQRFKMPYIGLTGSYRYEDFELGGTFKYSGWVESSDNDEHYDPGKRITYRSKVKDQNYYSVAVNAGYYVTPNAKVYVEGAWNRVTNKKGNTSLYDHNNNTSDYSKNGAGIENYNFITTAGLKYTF: less than 3%
- OmpT protease variant OmpT D97A (protein) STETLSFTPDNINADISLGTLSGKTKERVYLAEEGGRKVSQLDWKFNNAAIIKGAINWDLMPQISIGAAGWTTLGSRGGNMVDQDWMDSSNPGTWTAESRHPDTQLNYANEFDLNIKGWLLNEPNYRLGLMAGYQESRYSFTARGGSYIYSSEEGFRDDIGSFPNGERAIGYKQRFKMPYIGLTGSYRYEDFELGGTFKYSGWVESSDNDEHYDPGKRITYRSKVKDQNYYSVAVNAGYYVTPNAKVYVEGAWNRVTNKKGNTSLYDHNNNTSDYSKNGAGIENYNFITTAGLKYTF: less than 3%
- OmpT protease variant OmpT D97S (protein) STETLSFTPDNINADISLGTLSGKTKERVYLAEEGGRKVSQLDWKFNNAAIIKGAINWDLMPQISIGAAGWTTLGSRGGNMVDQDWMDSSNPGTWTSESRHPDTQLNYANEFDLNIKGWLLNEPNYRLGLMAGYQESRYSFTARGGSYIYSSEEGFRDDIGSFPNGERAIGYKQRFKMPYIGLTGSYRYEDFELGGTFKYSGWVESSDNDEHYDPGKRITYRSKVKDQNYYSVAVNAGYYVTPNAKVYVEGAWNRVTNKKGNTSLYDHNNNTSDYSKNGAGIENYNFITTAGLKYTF: less than 3%
- OmpT protease variant OmpT D97G (protein) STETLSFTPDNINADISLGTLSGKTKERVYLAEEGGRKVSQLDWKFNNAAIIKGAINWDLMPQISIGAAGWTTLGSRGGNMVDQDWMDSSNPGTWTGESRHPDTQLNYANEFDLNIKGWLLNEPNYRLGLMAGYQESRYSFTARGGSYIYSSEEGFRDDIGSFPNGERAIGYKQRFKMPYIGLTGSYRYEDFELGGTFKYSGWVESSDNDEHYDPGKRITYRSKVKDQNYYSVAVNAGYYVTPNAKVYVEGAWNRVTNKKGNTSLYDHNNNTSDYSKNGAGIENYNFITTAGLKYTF: less than 3.0%
- OmpT protease variant OmpT D97Y (protein) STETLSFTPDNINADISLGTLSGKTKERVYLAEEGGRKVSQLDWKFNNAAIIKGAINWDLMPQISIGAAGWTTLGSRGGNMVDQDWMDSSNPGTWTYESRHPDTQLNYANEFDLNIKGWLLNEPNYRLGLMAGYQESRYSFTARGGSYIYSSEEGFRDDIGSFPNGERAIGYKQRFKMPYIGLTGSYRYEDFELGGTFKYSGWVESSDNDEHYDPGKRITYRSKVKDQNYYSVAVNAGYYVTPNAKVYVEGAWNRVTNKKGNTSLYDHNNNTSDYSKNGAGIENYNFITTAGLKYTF: less than 3.0%
- OmpT protease variant OmpT D97R (protein) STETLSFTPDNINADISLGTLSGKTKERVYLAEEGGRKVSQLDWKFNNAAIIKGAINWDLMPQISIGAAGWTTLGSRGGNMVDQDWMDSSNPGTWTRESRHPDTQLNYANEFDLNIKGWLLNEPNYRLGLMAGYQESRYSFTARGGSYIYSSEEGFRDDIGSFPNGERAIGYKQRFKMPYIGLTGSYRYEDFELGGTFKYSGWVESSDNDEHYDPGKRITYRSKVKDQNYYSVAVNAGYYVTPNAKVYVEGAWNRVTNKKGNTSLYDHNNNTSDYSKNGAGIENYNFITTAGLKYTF: less than 3.0%

Recorded values, source patent US20070077617.
